MEASURED_ON: recombinant eIF4E (Homo sapiens (Human), UniProt P06730)
Sequence (P06730 whole entry): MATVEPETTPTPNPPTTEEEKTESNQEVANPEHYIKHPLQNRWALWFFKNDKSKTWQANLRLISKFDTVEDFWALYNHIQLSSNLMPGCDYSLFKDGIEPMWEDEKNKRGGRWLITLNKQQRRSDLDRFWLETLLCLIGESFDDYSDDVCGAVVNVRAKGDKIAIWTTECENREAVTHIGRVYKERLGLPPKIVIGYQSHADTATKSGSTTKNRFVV
TEST_METHOD_NOTES: Fluorescence polarization competition assay for eIF4E binding potency
PARTICULARS: inhibition of eIF4E/EDA-m7GDP-ATTO-550 binding by 50%; Table 4B calculated values; read-out: IC50
pIC50: −log10 of the molar value.
The threshold is inclusive: pIC50 of exactly 8 counts as Met; values below receive Not met.

compound="Cc1nc2cc(C(F)(F)F)c(CN3CCOCC3)c(C#N)c2c(=O)n1CCOc1ccc(Cl)cc1-c1ccnc2c(C(=O)O)csc12 [compound 501]" qualitative_label="Not met"
compound="Cc1cc(-c2cc(Cl)ccc2OCCn2c(C)nc3cnc(Cl)c(C#N)c3c2=O)c2scc(C(=O)O)c2n1 [compound 792]" qualitative_label=Met
compound="N#Cc1cc(C(F)(F)F)cc2nc(O)n(CCOc3ccc(Cl)cc3-c3cccc(C(=O)O)c3)c(=O)c12 [compound 186]" qualitative_label="Not met"
compound="COCc1ncc2nc(C)n(CCOc3ccc(Cl)cc3-c3cc(C)nc4c(C(=O)O)csc34)c(=O)c2c1C#N [compound 1066]" qualitative_label="Not met"
compound="N#Cc1cc2c(=O)n(CCOc3ccc(Cl)cc3-c3cc(C(=O)O)ccc3C3CC3)cnc2cn1 [compound 92]" qualitative_label="Not met"
compound="COc1c(C(F)(F)F)cc2nc(C)n(CCOc3ccc(Cl)cc3-c3cc(C)nc4c(C(=O)O)csc34)c(=O)c2c1C#N [compound 1036]" qualitative_label=Met
compound="Cc1cc(-c2cc(Cl)ccc2OCCn2c(C)nc3cc(Cl)c(CCN(C)C)c(C#N)c3c2=O)c2scc(C(=O)O)c2n1 [compound 609]" qualitative_label="Not met"
compound="Cc1cc(-c2cc(Cl)c(F)cc2OCCn2c(C)nc3cc(C(F)(F)F)cc(C#N)c3c2=O)c2scc(C(=O)O)c2n1 [compound 571]" qualitative_label="Not met"
compound="Cc1cc(-c2cc(Cl)ccc2OCCn2c(C)nc3cnc(N(C)C)c(C#N)c3c2=O)c2scc(C(=O)O)c2n1 [compound 791]" qualitative_label=Met

----------
Entries annotated with measured pIC50
MEASURED_ON: recombinant eIF4E (Homo sapiens (Human), UniProt P06730)
TEST_METHOD_NOTES: Fluorescence polarization competition assay for eIF4E binding potency
PARTICULARS: inhibition of eIF4E/EDA-m7GDP-ATTO-550 binding; calculated IC50 values, Table 4B; read-out: IC50
pIC50: −log10 of the molar value.
MEASURED_METRIC: pIC50

compound=Cc1nc2cnc(C#CC3(N(C)C)CC3)c(C#N)c2c(=O)n1CCOc1ccc(Cl)cc1-c1ccnc2c(C(=O)O)csc12 measured_metric=pIC50 recorded_result=7.45
compound=Cc1cc(-c2cc(Cl)ccc2OCCn2c(C)nc3cc(C(F)(F)F)c(N4CCN(C)CC4)c(C#N)c3c2=O)cc(C(=O)O)n1 measured_metric=pIC50 recorded_result=8.52
compound=Cc1nc2cnc(N(C)C3CCN(C(C)(C)C(F)(F)F)CC3)c(C#N)c2c(=O)n1CC#Cc1ccc(Cl)cc1-c1ccnc2c(C(=O)O)csc12 measured_metric=pIC50 recorded_result=7.80
compound=Cc1nc2cnc(N(C)C3CCN(C4CC(F)(F)C4)CC3)c(C#N)c2c(=O)n1CC#Cc1ccc(Cl)cc1-c1ccnc2c(C(=O)NS(=O)(=O)CC#N)csc12 measured_metric=pIC50 recorded_result=7.77
compound=Cc1nc2cnc(N3CCN(C4CC4)CC3)c(C#N)c2c(=O)n1CC#Cc1ccc(Cl)cc1-c1ccnc2c(C(=O)O)csc12 measured_metric=pIC50 recorded_result=7.67
compound=CCN(c1ncc2nc(C)n(CC#Cc3ccc(Cl)cc3-c3ccnc4c(C(=O)O)csc34)c(=O)c2c1C#N)C1CCN(C2CC2)CC1 measured_metric=pIC50 recorded_result=7.69
compound=Cc1cc(-c2cc(Cl)ccc2OCCn2c(C)nc3cc(C(F)(F)F)c(Cl)nc3c2=O)c2scc(C(=O)O)c2n1 measured_metric=pIC50 recorded_result=7.60
compound=Cc1nc2cnc(N(C)C3CCN(CC(F)(F)F)CC3)c(C#N)c2c(=O)n1CC#Cc1ccc(Cl)cc1-c1ccnc2c(C(=O)NS(=O)(=O)c3ccnn3C)csc12 measured_metric=pIC50 recorded_result=8.25
compound=Cc1nc2cnc(C3=CCC(F)(F)CC3)c(C#N)c2c(=O)n1CC#Cc1ccc(Cl)cc1-c1ccnc2c(C(=O)O)csc12 measured_metric=pIC50 recorded_result=7.78
compound=CCN(c1ncc2nc(C)n(CC#Cc3ccc(Cl)cc3-c3ccnc4c(C(=O)NS(=O)(=O)CCC#N)csc34)c(=O)c2c1C#N)C1CCN(C2COC2)CC1 measured_metric=pIC50 recorded_result=7.90
compound=Cc1nc2cnc(C3(C)CCN(C)CC3)c(C#N)c2c(=O)n1CCOc1ccc(Cl)cc1-c1ccnc2c(C(=O)O)csc12 measured_metric=pIC50 recorded_result=7.77
compound=Cc1nc2cnc(N(C)C3CCN(CC(F)(F)C4(O)CCC4)CC3)c(C#N)c2c(=O)n1CC#Cc1ccc(Cl)cc1-c1ccnc2c(C(=O)O)csc12 measured_metric=pIC50 recorded_result=7.43
compound=Cc1nc2cnc(N(C)C3CCN([C@H]4C[C@H](F)C4)CC3)c(C#N)c2c(=O)n1CC#Cc1ccc(Cl)cc1-c1ccnc2c(C(=O)NS(=O)(=O)C3COC3)csc12 measured_metric=pIC50 recorded_result=8.00
compound=Cc1nc2cnc(N(C)C3CCN(CC(F)(F)Cl)CC3)c(C#N)c2c(=O)n1CCOc1ccc(Cl)cc1-c1ccnc2c(C(=O)O)csc12 measured_metric=pIC50 recorded_result=7.53
compound=COc1cc2nc(C)n(CCOc3ccc(Cl)cc3-c3cc(C)nc4c(C(=O)O)c(C)sc34)c(=O)c2c(C#N)c1N1CCN(C)CC1 measured_metric=pIC50 recorded_result=7.31
compound=Cc1nc2cnc(N3CCN(CCCC(F)(F)F)CC3)c(C#N)c2c(=O)n1CC#Cc1ccc(Cl)cc1-c1ccnc2c(C(=O)O)csc12 measured_metric=pIC50 recorded_result=7.72
compound=Cc1nc2cnc(N(C)[C@@H]3[C@@H]4CN(CC(F)F)C[C@@H]43)c(C#N)c2c(=O)n1CC#Cc1ccc(Cl)cc1-c1ccnc2c(C(=O)O)csc12 measured_metric=pIC50 recorded_result=7.61
compound=Cc1c(CC2CCOCC2)nc(C#N)c2nc(C)n(CC#Cc3ccc(Cl)cc3-c3ccnc4c(C(=O)O)csc34)c(=O)c12 measured_metric=pIC50 recorded_result=7.06
compound=Cc1nc2cnc(N3CCN(C(C)C)CC3)c(C#N)c2c(=O)n1CC#Cc1ccc(Cl)cc1-c1ccnc2c(C(=O)O)csc12 measured_metric=pIC50 recorded_result=7.75
compound="Cc1nc2cnc(N(C)C3C[C@H]4C[C@@H]3CN4CC(C)(F)F)c(C#N)c2c(=O)n1CC#Cc1ccc(Cl)cc1-c1ccnc2c(C(=O)O)csc12 (stereo partly drawn)" measured_metric=pIC50 recorded_result=7.65
compound=N#Cc1cc(C#N)c2c(=O)n(CCOc3ccc(Cl)cc3-c3cccc(C(=O)O)c3)cnc2c1 measured_metric=pIC50 recorded_result=7.05
compound=N#Cc1cc(Br)cc2ncn(CCOc3ccc(Cl)cc3-c3cccc(C(=O)O)c3)c(=O)c12 measured_metric=pIC50 recorded_result=7.31
compound=Cc1nc2cc(C(F)(F)F)c(N3CCN(C)CC3=O)c(C#N)c2c(=O)n1CC#Cc1ccc(Cl)cc1-c1ccnc2c(C(=O)O)csc12 measured_metric=pIC50 recorded_result=7.40
compound=Cc1nc2cnc(N3CCN(C)CC3)c(C#N)c2c(=O)n1CCOc1ccc(Cl)cc1-c1ccnc2ccsc12 measured_metric=pIC50 recorded_result=7.28
